Test system: CD2F1 mice, L1210 leukemia ip, survival T/C
Experiment: NCI In Vivo Anticancer Drug Screen. Data for tumor model L1210 Leukemia (intraperitoneal) in CD2F1 (CDF1) mice
Conditions: endpoint: mean survival time; dose: 100.0 mg/kg/injection; schedule: Q01DX001 (ip); vehicle: Klucel (hydroxypropylcellulose) (HPC); higher = longer survival
Inconclusive results and toxic doses are left out.
MEASUREMENT LABEL: T/C

Known results for molecules:
{"columns": ["MOLECULE", "TARGET SYSTEM", "MEASUREMENT LABEL", "RESULT VALUE"],
 "data": [
  ["COc1ccc([N+](=O)[O-])cc1NC(=O)Nc1cccc(C(F)(F)F)c1", "CD2F1 mice, L1210 leukemia ip, survival T/C", "T/C", "96 % of control"],
  ["CC1CCCN(N=Nc2ccc(Br)cc2-c2nc(N)c3cc(Br)ccc3n2)C1 (configuration not stated)", "CD2F1 mice, L1210 leukemia ip, survival T/C", "T/C", "103 % of control"],
  ["O=S(=O)(c1ccc(Cl)cc1)c1ccc(Cl)cc1", "CD2F1 mice, L1210 leukemia ip, survival T/C", "T/C", "93 % of control"],
  ["Cc1cc(=O)[nH]c(=O)[nH]1", "CD2F1 mice, L1210 leukemia ip, survival T/C", "T/C", "104 % of control"],
  ["N#Cc1cc(N2CC2)c([N+](=O)[O-])cc1[N+](=O)[O-]", "CD2F1 mice, L1210 leukemia ip, survival T/C", "T/C", "102 % of control"]
]}

Quick one: give me T/C for each item below, same order please.
1. Nc1ccc(C(=O)O)c([N+](=O)[O-])c1
2. CCOC(=O)Nc1cc(NCCCCc2ccccc2)c2[nH]cnc2n1

Key:
["96 % of control", "95 % of control"]
